test system: MM.1S cells; assay: MM.1S cell proliferation assay (CellTiter-Glo); type: cell-based; details: Homo sapiens, MM1.S, 120 h, read-out: MM.1S: IC50
Assay readout: IC50

-- ask Need IC50 of Nc1cccc2c1C(=O)N(C1CCC(=O)NC1=O)C2=O (stereo not shown) [Pomalidomide] , thanks.
-- reply > 30 nM

---

biological target: HiBiT-tagged IKZF1 (Homo sapiens, UniProt Q13422+Q96SW2); construct: expressed in transfected cells; host or cells: HT-1080 (ATCC CCL-121), lentiviral transduction; assay: Degradation assay for IKZF1 (HiBiT tag bioluminescence assay); format: cell-based; details: Table 1; HT-1080 IKZF1 HiBiT reporter cells; performed once with technical duplicates, some compounds tested on different days; read-out: HiBiT IKZF1: DC50
Sequence (Q13422 whole entry): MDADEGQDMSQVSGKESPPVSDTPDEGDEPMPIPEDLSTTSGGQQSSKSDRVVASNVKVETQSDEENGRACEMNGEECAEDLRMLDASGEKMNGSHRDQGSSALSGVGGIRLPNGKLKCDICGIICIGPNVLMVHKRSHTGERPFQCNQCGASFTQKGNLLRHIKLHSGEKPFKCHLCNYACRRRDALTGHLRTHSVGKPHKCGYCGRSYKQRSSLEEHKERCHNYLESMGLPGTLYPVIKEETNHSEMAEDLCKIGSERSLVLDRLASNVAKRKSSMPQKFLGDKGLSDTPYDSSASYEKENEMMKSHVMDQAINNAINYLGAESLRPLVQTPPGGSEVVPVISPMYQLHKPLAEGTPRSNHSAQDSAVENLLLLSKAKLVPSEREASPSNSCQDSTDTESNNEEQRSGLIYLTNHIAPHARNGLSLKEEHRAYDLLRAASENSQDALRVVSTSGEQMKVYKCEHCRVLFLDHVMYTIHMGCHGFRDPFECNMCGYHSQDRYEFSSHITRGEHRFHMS
Sequence (Q96SW2 whole entry): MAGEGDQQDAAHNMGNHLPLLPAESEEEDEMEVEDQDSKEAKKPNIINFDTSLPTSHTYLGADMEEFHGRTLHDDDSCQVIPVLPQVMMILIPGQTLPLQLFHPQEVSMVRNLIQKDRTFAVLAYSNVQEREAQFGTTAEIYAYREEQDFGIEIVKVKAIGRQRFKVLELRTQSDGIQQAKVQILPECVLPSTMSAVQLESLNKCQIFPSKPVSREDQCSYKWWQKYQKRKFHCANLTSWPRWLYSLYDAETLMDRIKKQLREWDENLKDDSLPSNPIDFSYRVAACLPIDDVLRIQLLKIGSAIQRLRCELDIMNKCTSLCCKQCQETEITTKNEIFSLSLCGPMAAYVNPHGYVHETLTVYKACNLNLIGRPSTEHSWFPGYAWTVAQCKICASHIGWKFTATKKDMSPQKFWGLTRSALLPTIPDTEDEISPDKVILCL
Sequence (Q16531 whole entry partner): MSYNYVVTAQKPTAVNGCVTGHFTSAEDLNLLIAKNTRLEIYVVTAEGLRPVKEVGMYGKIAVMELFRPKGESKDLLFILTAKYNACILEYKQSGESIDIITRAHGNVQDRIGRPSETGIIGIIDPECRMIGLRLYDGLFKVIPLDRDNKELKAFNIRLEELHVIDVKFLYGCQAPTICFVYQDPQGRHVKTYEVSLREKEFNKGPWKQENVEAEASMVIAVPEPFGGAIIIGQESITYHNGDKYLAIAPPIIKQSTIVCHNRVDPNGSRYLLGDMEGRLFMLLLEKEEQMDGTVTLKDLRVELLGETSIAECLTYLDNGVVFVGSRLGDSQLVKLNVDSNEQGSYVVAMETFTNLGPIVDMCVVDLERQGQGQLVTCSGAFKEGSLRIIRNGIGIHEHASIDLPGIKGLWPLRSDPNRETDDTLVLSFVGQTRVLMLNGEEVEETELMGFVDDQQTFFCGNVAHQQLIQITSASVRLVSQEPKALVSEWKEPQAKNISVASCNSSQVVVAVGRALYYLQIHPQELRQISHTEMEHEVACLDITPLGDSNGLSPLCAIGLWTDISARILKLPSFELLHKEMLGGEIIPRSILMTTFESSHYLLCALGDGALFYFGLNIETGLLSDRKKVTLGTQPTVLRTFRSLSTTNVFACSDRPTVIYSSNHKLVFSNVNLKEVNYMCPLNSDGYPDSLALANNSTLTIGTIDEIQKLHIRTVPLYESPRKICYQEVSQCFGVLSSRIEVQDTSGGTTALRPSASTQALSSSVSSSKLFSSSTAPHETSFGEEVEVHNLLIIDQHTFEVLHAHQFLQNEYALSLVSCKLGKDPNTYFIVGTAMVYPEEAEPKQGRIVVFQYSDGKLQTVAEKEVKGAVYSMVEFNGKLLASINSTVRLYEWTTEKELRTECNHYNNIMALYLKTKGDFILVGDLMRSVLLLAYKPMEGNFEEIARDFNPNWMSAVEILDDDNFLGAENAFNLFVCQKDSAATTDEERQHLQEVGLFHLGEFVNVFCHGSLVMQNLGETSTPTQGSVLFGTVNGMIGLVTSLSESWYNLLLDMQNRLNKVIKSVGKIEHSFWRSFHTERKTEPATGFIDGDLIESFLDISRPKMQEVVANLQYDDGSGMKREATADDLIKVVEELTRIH
Assay readout: log10 of DC50 (log10 of the value in nM)
Would you kindly interpret these values as log10 of DC50 expressed in nM?

Guide cases for log10 of DC50, answers given:
Molecule	Study target	Assay readout	Reported result
N#Cc1ccc2c(c1)OC[C@H]1CN(Cc3ccc(Cc4ccc5c6c(cccc46)C(=O)N5C4CCC(=O)NC4=O)cc3)CCN21 (stereo partly drawn) [Compound 3]	HiBiT-tagged IKZF1 (Homo sapiens, UniProt Q13422+Q96SW2)	log10 of DC50	-1.42
N#Cc1ccc2c(c1)OC[C@H]1CN(Cc3ccc(Cc4ccc5c6c(cc(F)cc46)C(=O)N5C4CCC(=O)NC4=O)cn3)CCN21 (stereo partly drawn) [Compound 2]	HiBiT-tagged IKZF1 (Homo sapiens, UniProt Q13422+Q96SW2)	log10 of DC50	-1.66
N#Cc1ccc2c(c1)OC[C@H]1CN(Cc3ccc(Cc4ccc5c6c(cccc46)C(=O)N5C4CCC(=O)NC4=O)cc3)CCN21 (stereo partly drawn) [Compound 5]	HiBiT-tagged IKZF1 (Homo sapiens, UniProt Q13422+Q96SW2)	log10 of DC50	-1.77
N#Cc1ccc(N2CCN(Cc3ccc(Cc4ccc5c6c(cc(F)cc46)C(=O)N5C4CCC(=O)NC4=O)cc3)CC2)c(F)c1 (stereo not drawn) [Compound 9]	HiBiT-tagged IKZF1 (Homo sapiens, UniProt Q13422+Q96SW2)	log10 of DC50	-1.13
N#Cc1ccc2c(c1)OC[C@H]1CN(Cc3ccc(Cc4ccc5c6c(cc(F)cc46)C(=O)N5C4CCC(=O)NC4=O)cc3)CCN21 (stereo partly drawn) [Compound 1]	HiBiT-tagged IKZF1 (Homo sapiens, UniProt Q13422+Q96SW2)	log10 of DC50	-1.60

Required: log10 of DC50, one value per molecule below.
1. O=C1CCC(N2C(=O)c3cc(F)cc4c(Cc5ccc(CN6CCC7(CCCO7)CC6)cc5F)ccc2c34)C(=O)N1 (stereo not drawn) [Compound 7]
2. N#Cc1cnc2c(c1)OC[C@H]1CN(Cc3ccc(Cc4ccc5c6c(cc(F)cc46)C(=O)N5C4CCC(=O)NC4=O)c(F)c3)CCN21 (stereo partly drawn) [Compound 10]
3. N#Cc1ccc(N2CCN(Cc3ccc(Cc4ccc5c6c(cc(F)cc46)C(=O)N5[C@H]4CCC(=O)NC4=O)cc3)CC2)c(F)c1 (single isomer, unassigned) [Compound 9-B]
4. CC(C)(C)N1CCN(Cc2ccc(Cc3ccc4c5c(cc(F)cc35)C(=O)N4C3CCC(=O)NC3=O)c(F)c2)CC1 (stereo not drawn) [Compound 13]
5. N#Cc1cnc2c(c1)OC[C@H]1CN(Cc3ccc(Cc4ccc5c6c(cccc46)C(=O)N5C4CCC(=O)NC4=O)c(F)c3)CCN21 (stereo partly drawn) [Compound 4]

-- reply
1. -0.89
2. -1.19
3. -0.87
4. 0.09
5. -1.59

Provide log10 of DC50 for all items below, preserving their order.
1. N#Cc1ccc(N2CCN(Cc3ccc(Cc4ccc5c6c(cc(F)cc46)C(=O)N5[C@@H]4CCC(=O)NC4=O)cc3)CC2)c(F)c1 (single isomer, unassigned) [Compound 9-A]
2. O=C1CCC(N2C(=O)c3cc(F)cc4c(Cc5ccc(CN6CCOCC6)cc5)ccc2c34)C(=O)N1 (stereo not drawn) [Compound 12]
3. O=C1CCC(N2C(=O)c3cc(F)cc4c(Cc5ccc(CN6CC(N7CCOCC7)C6)cc5F)ccc2c34)C(=O)N1 (stereo not drawn) [Compound 6]
4. O=C1CCC(N2C(=O)c3cc(F)cc4c(Cc5ccc(CN6CCOCC6)cc5F)ccc2c34)C(=O)N1 (stereo not drawn) [Compound 8]
5. O=C1CCC(N2C(=O)c3cc(F)cc4c(Cc5ccc(CN6CCC(N7CCOCC7)CC6)cc5F)ccc2c34)C(=O)N1 (stereo not drawn) [Compound 11]

-- reply
1. -0.64
2. 0.77
3. -0.13
4. 0.37
5. 0.34
